- system_tested: DGKζ (Homo sapiens, UniProt Q13574)
- Construct: His
- Sequence (Q13574 whole entry): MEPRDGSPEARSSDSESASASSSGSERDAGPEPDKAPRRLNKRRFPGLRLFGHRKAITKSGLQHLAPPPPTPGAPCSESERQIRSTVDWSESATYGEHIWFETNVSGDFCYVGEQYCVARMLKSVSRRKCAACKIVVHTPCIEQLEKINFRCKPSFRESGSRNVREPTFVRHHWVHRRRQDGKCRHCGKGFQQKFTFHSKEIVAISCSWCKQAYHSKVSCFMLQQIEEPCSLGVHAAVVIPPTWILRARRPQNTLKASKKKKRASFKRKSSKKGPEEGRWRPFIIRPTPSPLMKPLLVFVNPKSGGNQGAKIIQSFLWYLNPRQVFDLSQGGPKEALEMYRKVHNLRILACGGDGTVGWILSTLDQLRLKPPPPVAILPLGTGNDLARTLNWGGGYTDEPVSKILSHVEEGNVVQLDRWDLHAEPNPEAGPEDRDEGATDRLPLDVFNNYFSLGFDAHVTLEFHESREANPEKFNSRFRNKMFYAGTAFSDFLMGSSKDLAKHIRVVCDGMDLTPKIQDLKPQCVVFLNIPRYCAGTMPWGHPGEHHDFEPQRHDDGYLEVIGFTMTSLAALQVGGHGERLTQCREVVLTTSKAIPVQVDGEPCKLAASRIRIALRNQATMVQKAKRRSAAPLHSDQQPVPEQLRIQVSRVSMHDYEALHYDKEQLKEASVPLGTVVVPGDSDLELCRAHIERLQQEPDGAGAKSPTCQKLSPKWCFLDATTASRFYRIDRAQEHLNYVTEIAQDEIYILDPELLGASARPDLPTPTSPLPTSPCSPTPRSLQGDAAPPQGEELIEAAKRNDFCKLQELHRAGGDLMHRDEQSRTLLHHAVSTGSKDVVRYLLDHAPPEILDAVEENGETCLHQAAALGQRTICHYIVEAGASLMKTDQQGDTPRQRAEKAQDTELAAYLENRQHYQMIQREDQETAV
- method_summary: In vitro DGKζ inhibition assay (ADP-Glo)
- conditions_used: His-tagged human recombinant enzyme, 0.4 nM DGKζ, 30 μM ATP, 20 μM DLG, 90 minute incubation
outcome_measure: IC50

> print(dat)
                                   molecule                        system.tested        measured
1  CC[C@H]1CN(C(c2ccc(F)cc2)c2ccc(F)cc2)[C@H](CC)CN1c1nc2nncn2c2ccc(C#N)nc12  DGKζ (Homo sapiens, UniProt Q13574)         ≤ 20 nM
2  CC[C@@H]1CN(c2nc3nncn3c3cccnc23)[C@@H](C)CN1C(c1ccc(F)cc1)C(C)(C)O (single isomer, unassigned) [Example 14]  DGKζ (Homo sapiens, UniProt Q13574)  200 to 2000 nM
3  CC[C@H]1CN(C(c2ccc(F)cc2)c2ccc(F)cc2)[C@H](CC)CN1c1nc2nncn2c2cccnc12  DGKζ (Homo sapiens, UniProt Q13574)         ≤ 20 nM
4  CC[C@H]1CN(C(c2ccc(F)cc2)c2ccc(F)cc2)[C@H](CC)CN1c1nc2nncn2c2ccc(C)nc12  DGKζ (Homo sapiens, UniProt Q13574)         ≤ 20 nM
5  CC[C@@H]1CN(c2nc3nncn3c3cccnc23)[C@@H](C)CN1C(C(=O)OC)c1ccc(F)cc1 (single isomer, unassigned) [Example 12]  DGKζ (Homo sapiens, UniProt Q13574)    20 to 200 nM
6  CC[C@@H]1CN(c2nc3nncn3c3cccnc23)[C@@H](C)CN1Cc1cccc2ccccc12  DGKζ (Homo sapiens, UniProt Q13574)         ≤ 20 nM

From here, focus on the item given below.
# return recorded IC50 for input CC[C@H]1CN(C(c2ccc(F)cc2)c2ccc(F)cc2)[C@H](CC)CN1c1nc2nncn2c2nccnc12
≤ 20 nM

###

- system_tested: DGKζ (Homo sapiens, UniProt Q13574)
- Construct: His; purchased Signal Chem D30-10H
- method_summary: In vitro DGKζ inhibition assay (ADP-Glo)
- Format: biochemical
- conditions_used: His-tagged human recombinant enzyme, 0.4 nM DGKζ, 30 μM ATP, 20 μM DLG, 90 minute incubation
pIC50: −log10 of the molar value.
Entries and their measured pIC50 follow.

Solved cases (3 shown):
> print(dat)
                                   molecule  outcome.measure      measured
1  CC[C@H]1CN(C(c2ccc(F)cc2)c2ccc(F)cc2)[C@H](CC)CN1c1cc2nncn2c2cccnc12            pIC50  6.70 to 7.70
2  CC[C@@H]1CN(c2nc3nncn3c3cccnc23)[C@@H](C)CN1C(c1ccc(F)cc1)C(C)(C)O (single isomer, unassigned) [Example 15]            pIC50  6.70 to 7.70
3  CC[C@H]1CN(C(c2ccc(F)cc2)c2ccc(F)cc2)[C@H](CC)CN1c1nc2nnc(C)n2c2cccnc12            pIC50        ≥ 7.70

Identify pIC50 associated with the molecule CC[C@H]1CN(C(c2ccc(F)cc2)c2ccc(F)cc2)[C@H](CC)CN1c1nc2nncn2c2cc(-c3cnn(C)c3)cnc12
< 5.70

# return recorded pIC50 for entry CC[C@@H]1CN(c2nc3nncn3c3cccnc23)[C@@H](C)CN1C(C(=O)OC)c1ccc(F)cc1 (single isomer, unassigned) [Example 13]
6.70 to 7.70

Provide measured pIC50 value, entry: CC[C@@H]1CN(c2nc3nncn3c3nccnc23)[C@@H](C)CN1C(c1ccc(F)cc1)c1ccc(F)cc1
≥ 7.70

Give pIC50 for CC[C@@H]1CN(c2nc3nncn3c3cccnc23)[C@@H](C)CN1C(c1ccc(F)cc1)c1nc(C2CC2)no1 (mixture of isomers)
6.70 to 7.70

Identify pIC50 associated with the molecule CC[C@@H]1CN(c2nc3nncn3c3cccnc23)[C@@H](C)CN1Cc1ccc2cc(F)ccc2n1
6.70 to 7.70

###

- system_tested: DGKα (Homo sapiens)
- Construct: His
- Sequence (P23743 whole entry): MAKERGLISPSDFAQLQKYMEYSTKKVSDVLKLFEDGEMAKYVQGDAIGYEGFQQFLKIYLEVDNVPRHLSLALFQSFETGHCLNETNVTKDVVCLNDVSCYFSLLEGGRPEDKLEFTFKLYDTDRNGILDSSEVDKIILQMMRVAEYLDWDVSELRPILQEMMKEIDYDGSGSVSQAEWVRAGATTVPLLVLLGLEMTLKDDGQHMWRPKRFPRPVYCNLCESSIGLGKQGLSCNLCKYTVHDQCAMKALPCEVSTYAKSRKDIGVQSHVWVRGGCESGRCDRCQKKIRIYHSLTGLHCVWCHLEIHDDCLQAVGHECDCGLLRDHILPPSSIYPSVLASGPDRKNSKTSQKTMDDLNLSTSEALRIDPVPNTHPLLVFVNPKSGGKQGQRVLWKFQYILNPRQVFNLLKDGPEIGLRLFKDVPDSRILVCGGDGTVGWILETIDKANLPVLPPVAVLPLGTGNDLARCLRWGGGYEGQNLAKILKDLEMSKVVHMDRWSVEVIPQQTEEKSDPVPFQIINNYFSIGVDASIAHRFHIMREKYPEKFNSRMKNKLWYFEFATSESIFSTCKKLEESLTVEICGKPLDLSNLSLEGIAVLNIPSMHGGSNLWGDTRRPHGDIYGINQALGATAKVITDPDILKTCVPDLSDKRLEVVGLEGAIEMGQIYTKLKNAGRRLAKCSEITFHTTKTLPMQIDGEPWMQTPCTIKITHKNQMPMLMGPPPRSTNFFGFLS
- method_summary: In vitro DGKα inhibition assay (ADP-Glo)
- conditions_used: His-tagged human recombinant enzyme, 0.1 nM DGKα, 50 μM ATP, 20 μM DLG, 90 minute incubation
pIC50: −log10 of the molar value.
outcome_measure: pIC50

Use these answered entries as a reference point.
> print(dat)
                                    molecule  measured
 1  CC[C@H]1CN(C(c2ccc(F)cc2)c2ccc(F)cc2)[C@H](CC)CN1c1cc2nncn2c2cccnc12    ≥ 7.70
 2  CC[C@@H]1CN(c2nc3nncn3c3cccnc23)[C@@H](C)CN1C(c1ccc(F)cc1)C(C)(C)O (single isomer, unassigned) [Example 14]    ≥ 7.70
 3  CC[C@@H]1CN(c2nc3nncn3c3cccnc23)[C@@H](C)CN1Cc1cccc2ccccc12    ≥ 7.70
 4  CC[C@@H]1CN(c2nc3nncn3c3cccnc23)[C@@H](C)CN1C(C(=O)OC)c1ccc(F)cc1 (single isomer, unassigned) [Example 12]    ≥ 7.70
 5  CC[C@@H]1CN(c2nc3nncn3c3cccnc23)[C@@H](C)CN1C(c1ccc(F)cc1)c1nc(C2CC2)no1 (mixture of isomers)    ≥ 7.70
 6  CC[C@H]1CN(C(c2ccc(F)cc2)c2ccc(F)cc2)[C@H](CC)CN1c1nc2nncn2c2ccc(C#N)nc12    ≥ 7.70
 7  CC[C@H]1CN(C(c2ccc(F)cc2)c2ccc(F)cc2)[C@H](CC)CN1c1nc2nnc(C)n2c2cccnc12    ≥ 7.70
 8  CC[C@@H]1CN(c2nc3nncn3c3cccnc23)[C@@H](C)CN1C(C(=O)OC)c1ccc(F)cc1 (single isomer, unassigned) [Example 13]    ≥ 7.70
 9  CC[C@H]1CN(C(c2ccc(F)cc2)c2ccc(F)cc2)[C@H](CC)CN1c1nc2nncn2c2cccnc12    ≥ 7.70
10  CC[C@H]1CN(C(c2ccc(F)cc2)c2ccc(F)cc2)[C@H](CC)CN1c1nc2nncn2c2cc(-c3cnn(C)c3)cnc12    ≥ 7.70

Give reported pIC50 value for CC[C@H]1CN(C(c2ccc(F)cc2)c2ccc(F)cc2)[C@H](CC)CN1c1nc2nncn2c2nccnc12
≥ 7.70

Provide measured pIC50 value, entry: CC[C@@H]1CN(c2nc3nncn3c3nccnc23)[C@@H](C)CN1C(c1ccc(F)cc1)c1ccc(F)cc1
≥ 7.70

Dear colleague, please send me the reported pIC50 for CC[C@@H]1CN(c2nc3nncn3c3cccnc23)[C@@H](C)CN1Cc1ccc2cc(F)ccc2n1 when you can.
≥ 7.70

Write down pIC50 measured for item CC[C@@H]1CN(c2nc3nncn3c3cccnc23)[C@@H](C)CN1C(c1ccc(F)cc1)C(C)(C)O (single isomer, unassigned) [Example 15]
6.70 to 7.70

Return pIC50 for the following molecule: CC[C@H]1CN(C(c2ccc(F)cc2)c2ccc(F)cc2)[C@H](CC)CN1c1nc2nncn2c2ccc(C)nc12
≥ 7.70
